The reported numbers originate from BindingDB's records for doi:10.1016/0960-894X(95)00399-E.

Measurement Target: Gastrin/cholecystokinin type B receptor (Cavia porcellus)
Assay: Binding affinity towards Cholecystokinin type B receptor was measured by displacement of [125I]CCK from guinea pig cortical membranes

>  <Test Smiles>
CN1C(=O)[C@H](NC(=O)Nc2cccc(C(=O)NS(=O)(=O)c3ccccc3)c2)N=C(C2CCCCC2)c2ccccc21

>  <IC50 / nM>
0.73

$$$$
